Hey, just so you know, these numbers are from PubChem BioAssay (NCI).

- test-method-notes: NCI Yeast Anticancer Drug Screen. Data for the rad50 strain (AID 155);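 also: 0% = growth of vehicle-only cultures of the same strain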
- assay-setup: S. cerevisiae rad50 strain growth inhibition; at 50.0 µM; hits give high values
The panel holds about 79,000 compounds, 15% with a hit somewhere; the sample as a whole holds those more often.
measurement-kind: growth inhibition (%)
Numeric only. Scale: %

Problem: Retrieve growth inhibition measured for `CNc1ccc(N=O)cc1` and print it.
Result: 87.8

Further cases:
Problem: Fill in growth inhibition for record `CN(CN(C)N=Nc1ccc(Cl)cc1)CN(C)N=Nc1ccc(Cl)cc1`
Result: -3.1

Problem: Read off the recorded growth inhibition for CC1(C)OC2C(COC(c3ccccc3)(c3ccccc3)c3ccccc3)OC(n3ccc(=O)[nH]c3=O)C2O1 (stereo not given)
Result: 75.9

Problem: Provide one value: measured growth inhibition of COc1cc(NCC(C)(O)CN2CCC(C)CC2C)c2ncccc2c1 (stereo not given)
Result: 83.2

Problem: Return the recorded growth inhibition value; entry: COc1cc(O)c2c(c1)C(=O)c1cc3c(c(O)c1C2=O)C(OC1OC(C)C(O)C(O)C1OC)C(OC)C(C)(O)C3=O (stereo not given)
Result: 92.5

====

- test-method-notes: NCI Yeast Anticancer Drug Screen. Data for the rad50 strain (AID 155);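 also: 0% = growth of vehicle-only cultures of the same strain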
- assay-setup: S. cerevisiae rad50 strain growth inhibition; at 5.0 µM (retest, dose inferred, filed as 0.5)
Compounds without any hit were thinned out: in the full panel of roughly 79,000, 15% have a hit. The source made the active and inactive calls. No stated cut-off is given here; in the data, active means growth inhibition above about 70%; inactive means the rest.
Reply using exactly one outcome from TRUE for active, FALSE for inactive

Problem: Test call for this compound, please: `Cc1ccc(C)c(S(=O)(=O)Nc2c([N+](=O)[O-])cc([N+](=O)[O-])c3ccccc23)c1`
Result: FALSE

Others:
Problem: Record lookup: outcome of this test for `CCCCCCCCCCCCCC(=O)NO` ?
Result: TRUE

Problem: Lab log entry: COc1cccc(C2c3cc4c(cc3OC(N3CCCC3)C2C)OCO4)c1 (stereo unspecified) — outcome as called in the assay?
Result: FALSE

Problem: Field: outcome | Entry: `O=C1CCCCC1=C(I)I`
Result: FALSE

Problem: What is the recorded call for this compound in the test? `Brc1ccc(-c2c3ccccc3cc3c2ccc2ccccc23)cc1`
Result: FALSE

Problem: How did this test come out for CN(C)CC(CN1CCCC1)C(=O)c1ccccc1 (stereo unspecified) ?
Result: FALSE

Problem: For `FC(F)(F)c1nc(Cl)nc2nc[nH]c12` , what call appears in the results of this test?
Result: FALSE

Problem: GET /call?item= `Cc1cnc2c(c1C)C(=O)c1ccccc1C2=O` returns the recorded outcome of this test.
Result: FALSE

Problem: Assay outcome for CCCCCCCCCCCCOC(=O)CC1CC(C(C)=O)C1(C)C (stereo unspecified) : what was it?
Result: FALSE

Problem: What classification did CC([C@H]1CCC2C3CCC4CC5(CC[C@]4(C)C3CC[C@@]21C)c1ccccc1C(=O)N5C)N(C)C (stereo partly specified) end up with in this test?
Result: FALSE

Problem: // return assay outcome for O=C1C=CC(=O)N1c1ccccc1 (tested in a mixture with another compound)
Result: FALSE

====

- test-method-notes: NCI Yeast Anticancer Drug Screen. Data for the sgs1 mgt1 strain (AID 161);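 also: 0% = growth of cultures given vehicle only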
- assay-setup: S. cerevisiae sgs1 mgt1 strain, at 5.0 µM (retest, dose inferred, filed as 0.5)
The panel holds about 79,000 compounds, 15% with a hit somewhere; the sample as a whole holds those more often. Active and inactive are the calls of the source. Cut-off read from the data, not from the text of the source: active = growth inhibition above about 70%; inactive = the rest.
// one of T = active, F = inactive, no free text

Problem: Field: outcome | Entry: `COc1ccc2c(c1)CCCN2CCCCCCCCCCN1CCCCC1`
Result: F

Problem: Recorded call for `COc1ccc2c(c1)CCCN2S(=O)(=O)c1ccc(N)cc1` ?
Result: F

Problem: Answer briefly: the call reported for O=C(O)C1C(C(=O)O)C2C(=O)C=CC1N2Cc1ccccc1 (stereo not given) in this assay.
Result: F

Problem: Please share the test call associated with `Cc1cccc[c]1[Sn]([Cl])([O][Sn]([Cl])([c]1ccccc1C)[c]1ccccc1C)[c]1ccccc1C` .
Result: F

Problem: Can you look up the reported call for CCOC(=O)C1=C(c2ccccc2)SC(c2ccccc2)N(C(C)C)C1=O (stereo not given) for me?
Result: F

Continuing:
Problem: Field: outcome | Entry: ClCC1CSC2(CCCCC2)O1 (stereo not given)
Result: F

Problem: Please indicate how the test categorized `CCC(=O)NC1=C(Cl)C(=O)c2ccccc2C1=O` .
Result: T

Problem: Please let me know the test result on file for `COC(=O)Oc1nn(C(=O)OC)c(=O)c2ccccc12` .
Result: F

Problem: Called result for `O=C1/C(=C/c2cccc(Br)c2)CCc2ccccc21`
Result: F

Problem: How did this test come out for `CN(C)c1ccc(C=Nc2ccc(OCCCCCCCCCCC(=O)O)cc2)cc1` ?
Result: T
